# TARGET_ENTITY: SOS1 (Homo sapiens, UniProt Q07889)
# Construct: adding equal amounts of HIS-SOS1cat (160 nM; Cytoskeleton, US); His; purchased Cytoskeleton, US
# Sequence (Q07889 564-1049 limits assumed): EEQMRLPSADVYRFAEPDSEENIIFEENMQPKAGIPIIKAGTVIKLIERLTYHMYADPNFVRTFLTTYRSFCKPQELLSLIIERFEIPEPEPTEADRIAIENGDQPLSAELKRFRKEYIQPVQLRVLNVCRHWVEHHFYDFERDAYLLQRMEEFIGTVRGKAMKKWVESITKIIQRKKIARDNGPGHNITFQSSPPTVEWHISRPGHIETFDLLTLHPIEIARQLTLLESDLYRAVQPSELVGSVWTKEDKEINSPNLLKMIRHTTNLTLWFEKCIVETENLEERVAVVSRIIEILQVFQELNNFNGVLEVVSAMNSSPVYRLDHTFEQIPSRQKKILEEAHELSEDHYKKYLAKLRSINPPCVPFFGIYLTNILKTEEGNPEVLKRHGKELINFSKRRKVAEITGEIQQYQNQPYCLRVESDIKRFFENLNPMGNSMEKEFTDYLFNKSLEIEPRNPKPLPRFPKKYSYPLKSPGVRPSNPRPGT
# ASSAY_COMMENT: SOS-catalyzed nucleotide exchange assay (HTRF, SOS1-mediated GTP loading of KRAS G12D)
# Type: biochemical
# CONDITION_NOTES: GST-KRAS G12D, HIS-SOS1cat, EDA-GTP-DY-647P1; compound 128 pM to 10 µM; read-out: SOS-catalyzed nucleotide exchange assay (IC50 range, Grade)
pIC50: −log10 of the molar value.
Measured pIC50 values are reported for all entries that follow.

| COMPOUND | pIC50 |
| --- | --- |
| CC(=O)Nc1ccccc1-n1nc(C(=O)N[C@H](C)c2cc(N)cc(C(F)(F)F)c2)ccc1=O | 5.00 to 6.00 |
| C[C@@H](NC(=O)c1ccc(=O)n(-c2cccc(F)c2)n1)c1cc(N)cc(C(F)(F)F)c1 | > 6.00 |
| C[C@@H](NC(=O)c1ccc(=O)n(-c2cccc3[nH]ccc23)n1)c1cc(N)cc(C(F)(F)F)c1 | 5.00 to 6.00 |
| C[C@@H](NC(=O)c1ccc(=O)n(-c2cccc(C(=O)N(C)C)c2)n1)c1cccc(C(F)(F)CO)c1F | > 6.00 |
| C[C@@H](NC(=O)c1ccc(=O)n(-c2ccccc2)n1)c1ccc(S(C)(=O)=O)cc1 | < 5.00 |
| C[C@@H](NC(=O)c1cc(C#N)c(=O)n(-c2ccccc2)n1)c1cc(N)cc(C(F)(F)F)c1 | > 6.00 |
| C#Cc1cc(=O)n(-c2ccccc2)nc1C(=O)N[C@H](C)c1cc(N)cc(C(F)(F)F)c1 | 5.00 to 6.00 |
| C[C@@H](NC(=O)c1ccc(=O)n(C2=CCCN(S(C)(=O)=O)C2)n1)c1cc(N)cc(C(F)(F)F)c1 | 5.00 to 6.00 |
| CCOc1cccc([C@@H](C)NC(=O)c2ccc(=O)n(-c3ccccc3)n2)c1 | < 5.00 |
| COC1CC=C(n2nc(C(=O)N[C@H](C)c3cc(N)cc(C(F)(F)F)c3)ccc2=O)CC1 (some centres unmarked) | 5.00 to 6.00 |
| Cc1ccc(-n2nc(C(=O)N[C@H](C)c3cc(N)cc(C(F)(F)F)c3)ccc2=O)s1 | > 6.00 |
| CC(=O)Nc1cccc(-n2nc(C(=O)N[C@H](C)c3cc(N)cc(C(F)(F)F)c3)ccc2=O)c1 | > 6.00 |
| C[C@@H](NC(=O)c1ccc(=O)n(C2=CCN(C)CC2)n1)c1cc(N)cc(C(F)(F)F)c1 | > 6.00 |
| C[C@@H](NC(=O)c1ccc(=O)n(C2=CCN(S(C)(=O)=O)CC2)n1)c1cc(N)cc(C(F)(F)F)c1 | > 6.00 |
| Cc1ccccc1-n1nc(C(=O)N[C@H](C)c2cc(N)cc(C(F)(F)F)c2)ccc1=O | > 6.00 |
| C[C@@H](NC(=O)c1ccc(=O)n(-c2ccccc2)n1)c1cccc(C#N)c1 | 5.00 to 6.00 |
| C[C@@H](NC(=O)c1ccc(=O)n(C2CCCC2)n1)c1cc(N)cc(C(F)(F)F)c1 | 5.00 to 6.00 |

---

# TARGET_ENTITY: SOS1 (Homo sapiens, UniProt Q07889)
# Construct: adding equal amounts of HIS-SOS1cat (160 nM; Cytoskeleton, US); His; purchased Cytoskeleton, US
# ASSAY_COMMENT: SOS-catalyzed nucleotide exchange assay (HTRF, SOS1-mediated GTP loading of KRAS G12D)
# Assay type: biochemical
# CONDITION_NOTES: GST-KRAS G12D, HIS-SOS1cat, EDA-GTP-DY-647P1; compound 128 pM to 10 µM; read-out: SOS-catalyzed nucleotide exchange assay (IC50 range, Grade)
pIC50: −log10 of the molar value.
Measured pIC50 values are reported for all entries that follow.

| MOLECULE | pIC50 |
| --- | --- |
| C[C@@H](NC(=O)c1ccc(=O)n(-c2ccccc2Cl)n1)c1cc(N)cc(C(F)(F)F)c1 [Example 32] | > 6.00 |
| COc1ccccc1-n1nc(C(=O)N[C@H](C)c2cc(N)cc(C(F)(F)F)c2)ccc1=O [Example 23] | > 6.00 |
| C[C@@H](NC(=O)c1ccc(=O)n(-c2cncc(-c3cnnn3C)c2)n1)c1cccc(C(F)(F)CF)c1F [Example B09] | > 6.00 |
| C[C@@H](NC(=O)c1ccc(=O)n(-c2cncc(-c3cnnn3C)c2)c1)c1cccc(C(F)(F)F)c1F [Example B08] | > 6.00 |
| C[C@@H](NC(=O)c1ccc(=O)n(-c2cccc3cc[nH]c23)n1)c1cc(N)cc(C(F)(F)F)c1 [Example 155] | 5.00 to 6.00 |
| C[C@@H](NC(=O)c1ccc(=O)n(-c2ccccc2N)n1)c1cc(N)cc(C(F)(F)F)c1 [Example 51] | > 6.00 |
| C[C@@H](NC(=O)c1cn(-c2ccccc2)c(=O)cn1)c1cc(N)cc(C(F)(F)F)c1 [Example 63] | 5.00 to 6.00 |
